Where do the numbers come from? From the supplement of paper PMC6555819.

# Tested on: LXRb:RXRa (NR concentration 270 nM, RXRa partner concentration 90 nM)
# measurement-description: PBM binding z-score (relative to random genomic background probes); higher = stronger binding; sequences stand for … in GC…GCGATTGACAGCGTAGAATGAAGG
measurement-label: PBM binding z-score

A selection of reference data follows.
query-sequence	PBM binding z-score
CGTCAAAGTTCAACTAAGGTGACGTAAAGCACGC	4.04
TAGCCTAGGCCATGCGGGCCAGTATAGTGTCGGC	-1.47
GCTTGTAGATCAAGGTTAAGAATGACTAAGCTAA	0.368

For each entry beneath this line, provide reported PBM binding z-score.
1. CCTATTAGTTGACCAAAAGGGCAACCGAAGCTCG
2. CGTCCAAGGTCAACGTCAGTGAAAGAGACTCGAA
3. CGTCCAAGGTCAGCAGGTCAATGAAAGCGACGTG

RESULT:
1.02
4.19
3.56

Go through the list and state PBM binding z-score for each entry.
1. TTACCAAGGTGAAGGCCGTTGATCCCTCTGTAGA
2. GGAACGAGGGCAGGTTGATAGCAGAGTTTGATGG
3. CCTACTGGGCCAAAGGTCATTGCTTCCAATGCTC
4. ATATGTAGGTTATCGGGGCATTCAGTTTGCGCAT

RESULT:
1: 0.138; 2: 0.00491; 3: 4.86; 4: 2.57

###

# Test system: VDR:RXRa (NR concentration 270 nM, RXRa partner concentration 90 nM)
# measurement-description: PBM binding z-score (relative to random genomic background probes); higher = stronger binding; sequences stand for … in GC…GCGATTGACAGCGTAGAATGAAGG
So I've got a bunch of sequences here, and I need their PBM binding z-score values.

Respectfully, I request PBM binding z-score for each entry included below.
1. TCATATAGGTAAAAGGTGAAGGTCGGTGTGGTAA
2. CCGAGTAGGTTAAGGGGCATTCAGGCAACGGTGA
3. CCGACTGGGGCAGAAAGGTTCCCATACCATCCGG

RESULT:
[1.92, 0.877, -0.573]

Please state PBM binding z-score for every sequence in the list that follows.
1. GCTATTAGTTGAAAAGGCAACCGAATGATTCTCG
2. TAGTCTAGGTCATTGGGCCAGTATAGTACGCATC
3. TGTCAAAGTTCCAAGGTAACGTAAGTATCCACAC
4. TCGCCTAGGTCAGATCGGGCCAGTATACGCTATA
5. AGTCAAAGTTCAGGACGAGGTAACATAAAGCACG
6. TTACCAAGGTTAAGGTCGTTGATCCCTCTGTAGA
7. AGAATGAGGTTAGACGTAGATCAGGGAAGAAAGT

RESULT:
1: -0.31; 2: 2.5; 3: 0.281; 4: 0.717; 5: 3.13; 6: 3.3; 7: 0.639

Would you mind giving PBM binding z-score for every sequence in the list below?
1. AGTTAAAGTTCAGGACGAGGTAACGTAAAGCACG
2. TCTTGTAGAACAAAGGTTAAGAAAGCCGAAGCCT
3. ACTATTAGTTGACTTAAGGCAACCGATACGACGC
4. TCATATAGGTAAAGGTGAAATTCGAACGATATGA
5. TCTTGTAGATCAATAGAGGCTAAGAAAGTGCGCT
6. CGTCAAAGTTCAACTAAGGTAACGTGAAGCACGC
7. CGTCCAAGGTCAATGCTAGGTCAGTTAAAGCATT

RESULT:
1: 3.01; 2: 1.18; 3: 0.358; 4: 1.03; 5: 0.377; 6: 4.37; 7: 5.01

Provide the reported PBM binding z-score of each entry below, same order.
1. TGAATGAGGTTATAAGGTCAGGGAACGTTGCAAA
2. CCGAGTAGGTTATGGGGCATTCTGGCAACGGTGA
3. CGCACTAGGTCAGAACAGGACAGTGAAGGATGAT

RESULT:
[4.04, -0.0151, 0.776]

###

# Test system: THRa:RXRa (NR concentration 90 nM, RXRa partner concentration 90 nM)
# measurement-description: PBM binding z-score (relative to random genomic background probes); higher = stronger binding; sequences stand for … in GC…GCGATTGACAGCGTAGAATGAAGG
Would you kindly list PBM binding z-score for each of these sequences?
Answers are plain numbers.

Consider the worked cases shown below.
query-sequence	target-under-test	measurement-label	endpoint-value
CCTATTAGTTGACCATAAGGGCAACCCAAGCTCG	THRa:RXRa (NR concentration 90 nM, RXRa partner concentration 90 nM)	PBM binding z-score	2.07
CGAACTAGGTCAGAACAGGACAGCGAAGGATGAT	THRa:RXRa (NR concentration 90 nM, RXRa partner concentration 90 nM)	PBM binding z-score	3.82
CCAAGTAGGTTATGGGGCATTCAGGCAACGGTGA	THRa:RXRa (NR concentration 90 nM, RXRa partner concentration 90 nM)	PBM binding z-score	0.508
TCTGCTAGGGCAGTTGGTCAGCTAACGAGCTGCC	THRa:RXRa (NR concentration 90 nM, RXRa partner concentration 90 nM)	PBM binding z-score	-0.754
AGTCAAAATTCATCTAGGTAACGTAAGATATGCT	THRa:RXRa (NR concentration 90 nM, RXRa partner concentration 90 nM)	PBM binding z-score	0.538
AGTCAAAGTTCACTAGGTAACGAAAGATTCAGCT	THRa:RXRa (NR concentration 90 nM, RXRa partner concentration 90 nM)	PBM binding z-score	1.85
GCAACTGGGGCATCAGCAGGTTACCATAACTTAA	THRa:RXRa (NR concentration 90 nM, RXRa partner concentration 90 nM)	PBM binding z-score	1.04
CCTGATAGGTCATGGTCAGCTAATCTACAGTATG	THRa:RXRa (NR concentration 90 nM, RXRa partner concentration 90 nM)	PBM binding z-score	2.46

Hi there! I need PBM binding z-score for each item below, if you can.
1. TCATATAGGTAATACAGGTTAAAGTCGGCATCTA
2. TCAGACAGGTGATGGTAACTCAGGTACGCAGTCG
3. CTCGAAAGGTCGTGCTCGGGTGAGTATACCAAAC
4. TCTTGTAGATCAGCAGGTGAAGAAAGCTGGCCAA

RESULT:
1. 1.35
2. 0.659
3. 3.75
4. 0.0556

###

# Test system: VDR homodimer (NR concentration 270 nM)
# measurement-description: PBM binding z-score (relative to random genomic background probes); higher = stronger binding; sequences stand for … in GC…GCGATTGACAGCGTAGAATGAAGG
measurement-label: PBM binding z-score
Give bare numbers.

Some entries whose results are on file:
query-sequence	PBM binding z-score
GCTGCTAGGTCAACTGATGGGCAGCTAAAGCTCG	-0.378
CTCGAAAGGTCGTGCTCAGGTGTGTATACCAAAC	0.893
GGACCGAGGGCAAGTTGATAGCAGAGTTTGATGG	1.67
GCATCTAGGTAATACAAGGTGAAAGTCCGATTGT	-0.188
GCTGCTAGGTCAGGTTGGACAGCTAACGGGTACG	0.386

Now for the sequence whose PBM binding z-score we want.
QUERY: Param readout = PBM binding z-score; param system = VDR homodimer (NR concentration 270 nM); param query = `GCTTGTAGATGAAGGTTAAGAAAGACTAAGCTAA` ; response: value
RESULT: -0.443

###

# System: LXRa:RXRa (NR concentration 270 nM, RXRa partner concentration 90 nM)
# measurement-description: PBM binding z-score (relative to random genomic background probes); higher = stronger binding; sequences stand for … in GC…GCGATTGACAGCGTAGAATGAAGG
Can you tell me PBM binding z-score for the items I'm about to list?
Give bare numbers.

Solved entries:
query-sequence	endpoint-value
CTACCAAGGCGAACAAGGTCGTTGATTACTATTC	0.164
TCTAGTTGGTCCAAGGTCACACACTCGAAATGCG	3.59
GATACAGGATCAAGGCCAGAGTACGCGTATTGAT	-0.625
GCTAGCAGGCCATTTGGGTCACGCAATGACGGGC	0.476
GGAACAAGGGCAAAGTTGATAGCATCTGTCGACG	0.618

Give measured PBM binding z-score for every item shown.
1. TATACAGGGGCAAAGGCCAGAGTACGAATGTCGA
2. TAGACTAGGTCATGCGGGCCAGTATAGTGTCGGC
3. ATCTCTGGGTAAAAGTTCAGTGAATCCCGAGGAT
4. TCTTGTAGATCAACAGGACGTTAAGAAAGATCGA
5. CTACCAAGGTGAACAAGGTCGTTGTTTACTATTC
6. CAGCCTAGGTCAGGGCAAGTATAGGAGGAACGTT
7. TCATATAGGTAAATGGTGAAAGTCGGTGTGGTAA

RESULT:
1: 1.07; 2: 2.34; 3: 1.38; 4: 0.413; 5: 1.22; 6: 1.35; 7: 1.03

Batch request: PBM binding z-score for each of the following sequences.
1. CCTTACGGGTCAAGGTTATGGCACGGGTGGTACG
2. GCTTGGAGGACAAGGTCAGAGCTTTGTCCGTAGA
3. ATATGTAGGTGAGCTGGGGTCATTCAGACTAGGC

RESULT:
[3.7, 1.7, 3.62]
